target: recombinant JAK2 (amino acids 831-1132) (Homo sapiens (Human)); experiment: Enzyme inhibition studies, JAK2 (peptide phosphorylation, Caliper LC3000); type: biochemical; settings: ATP concentration of the tabulated values not stated (assayed at ATP Km 15 μM and at 5 mM)
Sequence (O60674 831-1132): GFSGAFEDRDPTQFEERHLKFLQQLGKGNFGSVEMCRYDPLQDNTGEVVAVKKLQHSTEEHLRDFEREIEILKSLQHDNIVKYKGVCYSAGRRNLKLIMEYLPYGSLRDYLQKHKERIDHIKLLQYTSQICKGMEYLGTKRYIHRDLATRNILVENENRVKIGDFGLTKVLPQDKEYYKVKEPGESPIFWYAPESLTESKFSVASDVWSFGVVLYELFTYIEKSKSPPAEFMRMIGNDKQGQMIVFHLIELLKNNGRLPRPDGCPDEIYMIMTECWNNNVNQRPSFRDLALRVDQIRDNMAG
Measured attribute: IC50 (µM)
Report the figure in µM without appending any unit label.

Chemical string | IC50 [µM]
CC[C@H](C(=O)Nc1cccc2c(-c3nc(Nc4cn(C)nc4C)ncc3F)c[nH]c12)N1CCN(C)CC1 | 1.77
CCOc1nn(C)cc1Nc1ncc(C)c(-c2c[nH]c3c(NC(=O)[C@@H](C)N4CCN(CC)CC4)cccc23)n1 | 17.2
COc1nn(C)cc1Nc1nccc(-c2c[nH]c3c(NC(=O)[C@@H](C)N4CCN(C)[C@@H](C)C4)cccc23)n1 | 16.7

From here, focus on the item given below.
Input: Fill in the blank: the reported IC50 of `CCOc1nn(C)cc1Nc1ncc(C)c(-c2c[nH]c3c(NC(=O)[C@@H](C)N4CCN(C)C[C@H]4C)cccc23)n1` is ____.
Output: 25.7

====

molecular target: recombinant JAK1 (amino acids 866-1154) (Homo sapiens (Human)); assay: Enzyme inhibition studies, JAK1 (peptide phosphorylation, Caliper LC3000); details: ATP concentration not given (assayed at ATP Km 55 μM and at 5 mM)
Sequence (P23458 866-1154): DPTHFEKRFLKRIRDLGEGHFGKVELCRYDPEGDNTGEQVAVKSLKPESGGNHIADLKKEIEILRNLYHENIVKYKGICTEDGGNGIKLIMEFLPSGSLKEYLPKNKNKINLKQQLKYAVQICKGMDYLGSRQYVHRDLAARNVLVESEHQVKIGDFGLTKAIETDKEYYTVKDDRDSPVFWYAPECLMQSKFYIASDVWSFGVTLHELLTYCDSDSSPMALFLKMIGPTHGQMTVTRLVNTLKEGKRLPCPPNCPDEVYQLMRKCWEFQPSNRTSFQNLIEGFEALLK
Criterion: IC50 strictly under 100 nM. Met: Y. Not met: N.

Below, 5 molecules whose answers are already recorded.
Chemical string | Assigned class
COC[C@H](C(=O)Nc1cccc2c(-c3nc(Nc4cn(C)nc4C)ncc3F)c[nH]c12)N1CCN(C)CC1 | Y
CC[C@H](C(=O)Nc1cccc2c(-c3nc(Nc4cn(C)nc4OC)ncc3F)c[nH]c12)N1CCN(C)CC1 | Y
CC[C@@H](C(=O)Nc1cccc2c(-c3ccnc(Nc4cn(C)nc4OC)n3)c[nH]c12)N1CCN(C)CC1 | N
COCCN1CCN([C@H](C)C(=O)Nc2cccc3c(-c4nc(Nc5cn(C)nc5OC)ncc4F)c[nH]c23)CC1 | N
Cc1cnc(Nc2cn(C)nc2C)nc1-c1c[nH]c2c(NC(=O)[C@@H](C)N3CCN(C)CC3)cccc12 | Y

Input: Is the reported IC50 for `Cc1nn(C)cc1Nc1ncc(F)c(-c2c[nH]c3c(NC(=O)[C@@H](C)N4CCN(C)CC4)cccc23)n1` strictly below 100 nM?
Output: Y

Input: Is the reported IC50 for `CCN1CCN([C@H](C)C(=O)Nc2cccc3c(-c4ccnc(Nc5cn(C)nc5OC)n4)c[nH]c23)CC1` strictly below 100 nM?
Output: N

Input: Is the reported IC50 for `COc1nn(C)cc1Nc1nccc(-c2c[nH]c3c(NC(=O)[C@@H](C)N4CCN(C)[C@@H](C)C4)cccc23)n1` strictly below 100 nM?
Output: Y

Input: Is the reported IC50 for `CCOc1nn(CC)cc1Nc1ncc(C)c(-c2c[nH]c3c(NC(=O)[C@@H](C)N4CCN(C)CC4)cccc23)n1` strictly below 100 nM?
Output: Y

====

biological target: recombinant JAK2 (amino acids 831-1132) (Homo sapiens (Human)); test: Enzyme inhibition studies, JAK2 (peptide phosphorylation, Caliper LC3000); details: ATP concentration of the tabulated values not stated (assayed at ATP Km 15 μM and at 5 mM)
pIC50: −log10 of the molar value.
Each record here notes measured pIC50.

Worked examples follow.
Chemical string | Measured attribute | Endpoint result
CC[C@@H](C(=O)Nc1cccc2c(-c3ccnc(Nc4cn(C)nc4OC)n3)c[nH]c12)N1CCN(C)CC1 | pIC50 | < 4.52
CCOc1nn(C)cc1Nc1ncc(C)c(-c2c[nH]c3c(NC(=O)[C@@H](C)N4CCN(C)[C@H](C)C4)cccc23)n1 | pIC50 | < 4.52
CCOc1nn(C)cc1Nc1ncc(C)c(-c2c[nH]c3c(NC(=O)[C@@H](C)N4CCN(CCOC)CC4)cccc23)n1 | pIC50 | < 4.52

Input: Enter reported pIC50 observed with recombinant JAK2 (amino acids 831-1132) (Homo sapiens (Human)) for `COc1nn(C)cc1Nc1nccc(-c2c[nH]c3c(NC(=O)[C@@H](C)N4CCN(C)CC4)cccc23)n1`
Output: < 4.83
